The origin of these recorded values is ChEMBL document CHEMBL1127025.

tested-system: Leukotriene B4 receptor 1 (Homo sapiens)
Sequence (Q15722 whole entry): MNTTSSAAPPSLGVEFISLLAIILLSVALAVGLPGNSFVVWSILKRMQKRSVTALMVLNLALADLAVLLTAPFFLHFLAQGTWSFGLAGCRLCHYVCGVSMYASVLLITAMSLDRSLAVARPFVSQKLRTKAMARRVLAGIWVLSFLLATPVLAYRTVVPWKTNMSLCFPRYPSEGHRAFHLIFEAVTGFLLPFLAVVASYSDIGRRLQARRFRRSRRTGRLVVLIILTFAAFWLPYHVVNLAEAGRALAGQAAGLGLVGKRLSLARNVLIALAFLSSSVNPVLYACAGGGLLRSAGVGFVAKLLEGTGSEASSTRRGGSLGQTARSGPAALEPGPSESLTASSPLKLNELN
value-kind: pKi
Lab note — pKi values are minus log10 of concentrations in M.

Tell me the measured pKi of `COc1ccc(CCCCCCCCOc2ccc(CSCc3cccc(C(=O)O)c3)nc2/C=C/C(=O)O)cc1` , please. 8.15
